Below, each entry is listed with its recorded Yap1 mRNA, % UTC.
Tested on: Yap1 mRNA
Experiment: Dose-dependent inhibition of human Yap1 in A-431 cells (Example 8, 10,000 cells per well, RTS4814)
Assay type: cell-based
Settings: 2000.00 nM; A-431 cells, 10,000 cells per well, free uptake, approximately 48 hours, RTS4814
Strand notation (5' to 3'): a small letter for the sugar, then the base; units joined by * are phosphorothioate-linked, units joined directly phosphodiester-linked; [ ] holds rarer units or linkages, { } end groups; capitals alone tell only the bases. k = constrained ethyl (cEt); [5mC] = 5-methylcytosine; d = 2'-deoxy (DNA)

{"columns": ["substance", "target-under-test", "Yap1 mRNA, % UTC, % UTC"],
 "data": [
  ["1075458 (antisense k[5mC]*k[5mC]*kA*d[5mC]*dA*dA*dT*dA*dT*dA*d[5mC]*dT*d[5mC]*k[5mC]*kA*kA) [compound 1075458]", "Yap1 mRNA", 6],
  ["1076291 (kG*kA*kT*dT*dA*dA*dT*dG*dG*dT*dG*dG*d[5mC]*kA*kT*kT; antisense) [compound 1076291]", "Yap1 mRNA", 5],
  ["1076486 (kG*kA*kA*dA*d[5mC]*dG*dA*dA*dA*d[5mC]*dG*dG*dG*kA*kA*kA; antisense) [compound 1076486]", "Yap1 mRNA", 6],
  ["1076000 (k[5mC]*k[5mC]*kT*dA*dA*dT*dA*dT*dG*dA*d[5mC]*dT*d[5mC]*k[5mC]*kT*kT; antisense) [compound 1076000]", "Yap1 mRNA", 5],
  ["1075112 (kA*kT*kA*dT*dA*dG*dG*dA*dA*dT*dA*dT*dG*kG*kG*kT; antisense) [compound 1075112]", "Yap1 mRNA", 7],
  ["1076323 (k[5mC]*kA*kA*dT*dT*dT*dA*d[5mC]*dA*dA*dG*dT*dG*kA*kG*k[5mC]; antisense) [compound 1076323]", "Yap1 mRNA", 5],
  ["1074484 (kT*k[5mC]*kA*d[5mC]*dT*dA*dA*dT*dA*dT*dG*dG*dT*k[5mC]*kA*kT; antisense) [compound 1074484]", "Yap1 mRNA", 3],
  ["1075778 (k[5mC]*kA*kT*dT*dT*dA*dT*dA*d[5mC]*d[5mC]*dA*dG*dG*k[5mC]*kA*k[5mC]; antisense) [compound 1075778]", "Yap1 mRNA", 5],
  ["1074755 (k[5mC]*kA*k[5mC]*dT*dT*dT*dT*dA*d[5mC]*dA*dT*dT*dA*kG*kG*kA; antisense) [compound 1074755]", "Yap1 mRNA", 3],
  ["1075816 (kT*kA*kG*dT*dA*dT*dA*dA*dA*dG*d[5mC]*dA*dG*kG*kG*k[5mC]; antisense) [compound 1075816]", "Yap1 mRNA", 8],
  ["1074536 (kA*kG*kT*dA*dA*dT*dA*dG*d[5mC]*dT*d[5mC]*dT*dT*kT*k[5mC]*kT; antisense) [compound 1074536]", "Yap1 mRNA", 6],
  ["1074753 (kT*kA*k[5mC]*dA*dT*dT*dA*dG*dG*dA*dA*d[5mC]*dA*kA*kG*kG; antisense) [compound 1074753]", "Yap1 mRNA", 4],
  ["1076456 (k[5mC]*kT*kT*dT*dA*dA*dA*dG*dT*dG*dT*dA*dT*kG*kT*k[5mC]) [compound 1076456]", "Yap1 mRNA", 3],
  ["1074445 (kT*kG*kA*dT*dA*dG*d[5mC]*dA*d[5mC]*dT*dA*dG*dG*kA*kG*kG; antisense) [compound 1074445]", "Yap1 mRNA", 6],
  ["1076174 (kG*kA*kT*dA*dT*dA*dT*dG*dG*dT*dA*dG*d[5mC]*kA*kT*kA; antisense) [compound 1076174]", "Yap1 mRNA", 4],
  ["1076386 (antisense kA*kG*kT*dT*dA*dT*dA*dA*d[5mC]*dA*dG*dT*dG*kT*kA*kA) [compound 1076386]", "Yap1 mRNA", 5],
  ["1075457 (antisense kA*kG*kT*dA*dA*dT*dA*dT*dG*dT*dA*d[5mC]*dA*kT*kG*kG) [compound 1075457]", "Yap1 mRNA", 6],
  ["1076549 (kG*kT*kG*d[5mC]*dA*dA*dA*dA*dT*dA*d[5mC]*d[5mC]*dT*kT*kT*kG; antisense) [compound 1076549]", "Yap1 mRNA", 6],
  ["1074675 (antisense kA*kA*kA*dT*dT*dA*dT*dA*dG*dG*d[5mC]*dA*d[5mC]*kT*k[5mC]*k[5mC]) [compound 1074675]", "Yap1 mRNA", 3],
  ["1074817 (k[5mC]*kT*kG*dA*dA*dT*dA*dT*dT*dG*d[5mC]*d[5mC]*dA*k[5mC]*k[5mC]*k[5mC]; antisense) [compound 1074817]", "Yap1 mRNA", 11],
  ["1074245 (antisense kA*kG*kA*dA*dG*dT*dA*dT*d[5mC]*dT*d[5mC]*dT*dG*kA*k[5mC]*k[5mC]) [compound 1074245]", "Yap1 mRNA", 5],
  ["1074464 (kT*kT*kA*dG*dA*dG*dT*dA*dT*dG*dT*dG*dG*k[5mC]*kA*kA) [compound 1074464]", "Yap1 mRNA", 3],
  ["1074758 (k[5mC]*kA*kG*dT*dT*dA*dA*dG*d[5mC]*dA*d[5mC]*dT*dT*kT*kT*kA; antisense) [compound 1074758]", "Yap1 mRNA", 5],
  ["1074560 (DNA k[5mC]*k[5mC]*kA*dA*dT*d[5mC]*dG*dA*dG*dA*d[5mC]*dT*dT*kA*kA*kA) [compound 1074560]", "Yap1 mRNA", 4],
  ["1075207 (k[5mC]*kT*kA*dT*dT*dA*dA*dA*dT*dG*dA*dG*d[5mC]*kA*k[5mC]*k[5mC]; antisense) [compound 1075207]", "Yap1 mRNA", 7]
]}
